# Tested system: D(2) dopamine receptor (Homo sapiens)
# Sequence (P14416 whole entry): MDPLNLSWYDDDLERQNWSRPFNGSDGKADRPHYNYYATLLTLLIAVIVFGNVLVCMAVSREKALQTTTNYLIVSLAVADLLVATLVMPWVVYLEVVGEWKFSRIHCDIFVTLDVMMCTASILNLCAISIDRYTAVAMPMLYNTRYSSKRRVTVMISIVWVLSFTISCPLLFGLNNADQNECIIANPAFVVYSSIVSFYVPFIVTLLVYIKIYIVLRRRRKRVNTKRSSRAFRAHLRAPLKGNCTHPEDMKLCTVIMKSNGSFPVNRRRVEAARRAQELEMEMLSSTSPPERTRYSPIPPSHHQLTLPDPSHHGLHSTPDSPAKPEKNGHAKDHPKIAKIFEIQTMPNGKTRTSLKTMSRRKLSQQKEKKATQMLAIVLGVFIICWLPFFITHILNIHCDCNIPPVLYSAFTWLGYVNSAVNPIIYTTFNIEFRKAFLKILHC
# Procedure summary: Agonist activity at human dopamine D2 receptor expressed in HEK293T cells assessed as reduction in forskolin-induced cAMP accumulation preincubated for 15 mins followed by forskolin addition by GloSensor-based assay
# Assay type: functional, cell-based
# Protocol conditions: read-out: EC50
Reported endpoint: pEC50
Hey, just a heads up that pEC50 is the negative log base 10 of the concentration in molar.

compound="CCCN(CCc1ccc(NC(=O)CCc2cn(CCCCCCCCCCN(C)CCCCCNC(=O)COc3cncc(C#Cc4csc(C)n4)c3)nn2)cc1)C1CCc2c(O)cccc2C1 (centres undefined)" tested_system="D(2) dopamine receptor (Homo sapiens)" obs_value=8.26
compound="C#CCCC(=O)Nc1ccc(CCN(CCC)C2CCc3c(O)cccc3C2)cc1 (centres undefined)" tested_system="D(2) dopamine receptor (Homo sapiens)" obs_value=8.52
compound="CCCN(CCc1ccc(NC(=O)CCc2cn(CCCCCCCCN(C)CCCCCNC(=O)COc3cncc(C#Cc4csc(C)n4)c3)nn2)cc1)C1CCc2c(O)cccc2C1 (centres undefined)" tested_system="D(2) dopamine receptor (Homo sapiens)" obs_value=8.48

From here, focus on the item given below.
pEC50 in this record for CCCN(CCc1ccc(NC(=O)CCc2cn(CCCCCCNC(=O)COc3cncc(C#Cc4csc(C)n4)c3)nn2)cc1)C1CCc2c(O)cccc2C1 (centres undefined) : 8.12

----------
# Tested system: D(2) dopamine receptor (Homo sapiens)
# Procedure summary: Displacement of [3H]-Raclopride from recombinant human dopamine D2 receptor expressed in HEK293T cell membranes after 1 hr by liquid scintillation counting
Reported endpoint: log10 Ki (log10 of the value in nM)
Hi team, quick reminder: these entries are log10 of Ki (nM).

Entry CCCN(CCc1ccc(NC(=O)CCc2cn(CCCCCCCCN(C)CCCCCNC(=O)COc3cncc(C#Cc4csc(C)n4)c3)nn2)cc1)C1CCc2c(O)cccc2C1 (stereo unspecified) , log10 Ki reported as 1.70

Lab note: COc1cc(CN2CCN(c3ccccc3OC)CC2)ccc1OCc1cn(CCOCCOCCOCCOCCOCCNC(=O)COc2cccc(C#Cc3csc(C)n3)c2)nn1 gave log10 Ki of 2.55

Field log10 Ki (entry CCCN(CCc1ccc(NC(=O)CCc2cn(CCCCCCCCCCN(C)CCCCCNC(=O)COc3cncc(C#Cc4csc(C)n4)c3)nn2)cc1)C1CCc2c(O)cccc2C1 (stereo unspecified) ) reads 1.90

Briefly, log10 Ki measured for COc1cc(CN2CCN(c3ccccc3OC)CC2)ccc1OCc1cn(CCCCCCCCCCN(C)CCCCCNC(=O)COc2cccc(C#Cc3csc(C)n3)c2)nn1 : 2.60

According to the records, this compound C#CCOc1ccc(CN2CCN(c3ccccc3OC)CC2)cc1OC displays log10 Ki of 1.89

Measured log10 Ki, COc1cc(CN2CCN(c3ccccc3OC)CC2)ccc1OCc1cn(CCCCCCCCCCN(C)CCCCCNC(=O)COc2cncc(C#Cc3csc(C)n3)c2)nn1 : 2.48

log10 Ki recorded for this compound, COc1cc(CN2CCN(c3ccccc3OC)CC2)ccc1OCc1cn(CCCCCCCCN(C)CCCCCNC(=O)COc2cncc(C#Cc3csc(C)n3)c2)nn1 , is 2.12

Kindly note the recorded log10 Ki for CCCN(CCc1ccc(NC(=O)CCc2cn(CCCCCCNC(=O)COc3cncc(C#Cc4csc(C)n4)c3)nn2)cc1)C1CCc2c(O)cccc2C1 (stereo unspecified) , which is 2.47

Record summary for C#CCCC(=O)Nc1ccc(CCN(CCC)C2CCc3c(O)cccc3C2)cc1 (stereo unspecified) : reported log10 Ki = 1.23

For record COc1cc(CN2CCN(c3ccccc3OC)CC2)ccc1OCc1cn(CCOCCOCCOCCNC(=O)COc2cccc(C#Cc3csc(C)n3)c2)nn1 the listed log10 Ki is 2.64

// COc1cc(CN2CCN(c3ccccc3OC)CC2)ccc1OCc1cn(CCCCCCCCN(C)CCCCCNC(=O)COc2cccc(C#Cc3csc(C)n3)c2)nn1 : log10 Ki value = 2.17
